Biological target: Aggrecanase (Sus scrofa, UniProt F1S1A7+F1SHP0)
Sequence (F1S1A7 whole entry): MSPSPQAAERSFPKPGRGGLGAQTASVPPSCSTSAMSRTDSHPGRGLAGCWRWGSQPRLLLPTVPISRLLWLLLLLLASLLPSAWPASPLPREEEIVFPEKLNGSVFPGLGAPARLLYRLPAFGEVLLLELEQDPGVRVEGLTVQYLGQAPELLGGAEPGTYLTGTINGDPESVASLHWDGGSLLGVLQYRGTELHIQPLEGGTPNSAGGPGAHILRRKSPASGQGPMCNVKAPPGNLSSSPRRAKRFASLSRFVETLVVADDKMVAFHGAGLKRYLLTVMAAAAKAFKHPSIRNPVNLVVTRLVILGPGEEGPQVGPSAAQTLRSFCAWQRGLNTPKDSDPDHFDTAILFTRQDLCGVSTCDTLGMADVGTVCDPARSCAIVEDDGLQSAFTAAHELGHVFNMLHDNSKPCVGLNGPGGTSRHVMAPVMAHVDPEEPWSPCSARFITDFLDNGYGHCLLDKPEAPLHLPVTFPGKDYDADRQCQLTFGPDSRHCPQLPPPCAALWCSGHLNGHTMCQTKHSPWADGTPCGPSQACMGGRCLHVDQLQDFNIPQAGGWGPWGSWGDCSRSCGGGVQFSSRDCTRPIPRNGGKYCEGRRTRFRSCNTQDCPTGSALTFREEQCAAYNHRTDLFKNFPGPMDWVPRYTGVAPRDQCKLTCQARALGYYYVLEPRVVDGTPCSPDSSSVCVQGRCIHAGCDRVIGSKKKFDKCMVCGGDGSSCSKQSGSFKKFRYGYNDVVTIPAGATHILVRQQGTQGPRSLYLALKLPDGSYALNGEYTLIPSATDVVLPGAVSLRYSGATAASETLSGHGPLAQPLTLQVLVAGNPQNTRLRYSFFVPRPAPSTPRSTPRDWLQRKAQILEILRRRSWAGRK
Sequence (F1SHP0 whole entry): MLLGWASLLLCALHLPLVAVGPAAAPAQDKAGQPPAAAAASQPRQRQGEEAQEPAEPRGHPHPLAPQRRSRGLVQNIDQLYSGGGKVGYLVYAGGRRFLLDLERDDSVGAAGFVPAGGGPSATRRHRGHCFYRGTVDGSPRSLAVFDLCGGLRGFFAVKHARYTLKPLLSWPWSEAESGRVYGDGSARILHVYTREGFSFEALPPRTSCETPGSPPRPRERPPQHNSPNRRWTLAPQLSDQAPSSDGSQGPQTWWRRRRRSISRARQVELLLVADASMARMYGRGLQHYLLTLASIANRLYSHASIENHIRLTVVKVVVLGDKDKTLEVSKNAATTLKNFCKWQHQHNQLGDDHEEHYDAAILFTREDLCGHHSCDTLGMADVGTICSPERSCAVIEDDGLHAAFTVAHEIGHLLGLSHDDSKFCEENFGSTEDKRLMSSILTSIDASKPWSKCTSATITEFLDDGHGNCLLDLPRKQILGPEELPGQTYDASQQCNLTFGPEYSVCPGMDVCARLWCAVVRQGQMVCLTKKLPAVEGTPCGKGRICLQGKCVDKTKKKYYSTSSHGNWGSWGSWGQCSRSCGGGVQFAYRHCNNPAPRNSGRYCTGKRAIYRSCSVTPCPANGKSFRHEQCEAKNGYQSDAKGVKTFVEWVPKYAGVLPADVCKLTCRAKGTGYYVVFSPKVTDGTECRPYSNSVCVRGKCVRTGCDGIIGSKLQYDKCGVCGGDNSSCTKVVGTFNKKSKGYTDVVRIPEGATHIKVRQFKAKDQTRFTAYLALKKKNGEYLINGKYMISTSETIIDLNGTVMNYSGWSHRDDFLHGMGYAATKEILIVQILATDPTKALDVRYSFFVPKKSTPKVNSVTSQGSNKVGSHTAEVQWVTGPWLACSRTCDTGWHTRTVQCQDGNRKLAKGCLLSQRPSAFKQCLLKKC
Assay: Inhibition of aggrecanase in primary porcine chondrocytes assessed as inhibition of 35S-proteoglycan release measured after 9 to 12 hrs by liquid scintillation counting method
Type: cell-based
Each entry below carries its recorded IC50.

// IC50 lookup, key: "Cc1cc(F)ccc1COc1ccc(S(=O)(=O)N2CC(=O)N[C@@H](C)[C@@H]2C(=O)NO)cc1"
< 0.01 µM

Further cases:
So what does the record say about IC50 for "Cc1ccc(F)cc1COc1ccc(S(=O)(=O)N2CCC[C@@](C)(O)[C@@H]2C(=O)NO)cc1" ?
0.01 to 0.02 µM

So what does the record say about IC50 for "Cc1ccc(Cl)cc1COc1ccc(S(=O)(=O)N2C[C@H](O)CC(C)(C)[C@@H]2C(=O)NO)cc1" ?
0.01 to 0.02 µM

Any idea what IC50 was measured for "C[C@@]1(O)CCCN(S(=O)(=O)c2ccc(OCc3ccc(F)cc3Cl)cc2)[C@H]1C(=O)NO" ?
< 0.01 µM

====

Reported pIC50 values are given for each entry in this list.
Target: Disintegrin and metalloproteinase domain-containing protein 17 (Homo sapiens, UniProt P78536)
Sequence (P78536 whole entry, the tested form may be a part): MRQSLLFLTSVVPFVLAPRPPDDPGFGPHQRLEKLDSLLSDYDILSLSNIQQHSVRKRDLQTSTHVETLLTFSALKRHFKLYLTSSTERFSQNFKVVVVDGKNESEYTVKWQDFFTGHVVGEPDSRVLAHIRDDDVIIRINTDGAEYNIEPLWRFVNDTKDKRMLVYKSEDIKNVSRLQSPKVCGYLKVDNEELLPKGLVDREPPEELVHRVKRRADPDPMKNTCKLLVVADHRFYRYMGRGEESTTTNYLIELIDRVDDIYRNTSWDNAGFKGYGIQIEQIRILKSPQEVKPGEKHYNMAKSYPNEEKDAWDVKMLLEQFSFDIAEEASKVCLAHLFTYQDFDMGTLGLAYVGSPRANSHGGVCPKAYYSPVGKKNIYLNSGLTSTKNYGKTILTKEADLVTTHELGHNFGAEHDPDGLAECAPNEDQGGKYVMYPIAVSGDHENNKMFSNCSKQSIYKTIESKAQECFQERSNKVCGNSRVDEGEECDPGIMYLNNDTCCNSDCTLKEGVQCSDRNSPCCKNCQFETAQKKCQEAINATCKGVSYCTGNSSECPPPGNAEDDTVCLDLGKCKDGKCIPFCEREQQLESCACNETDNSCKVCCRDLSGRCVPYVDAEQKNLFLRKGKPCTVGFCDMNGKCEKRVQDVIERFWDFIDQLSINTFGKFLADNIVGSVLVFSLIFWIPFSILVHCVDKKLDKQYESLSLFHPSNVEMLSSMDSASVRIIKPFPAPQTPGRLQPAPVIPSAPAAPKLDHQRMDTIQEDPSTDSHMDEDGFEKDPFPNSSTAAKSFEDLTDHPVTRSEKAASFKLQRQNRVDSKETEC
Experiment: Inhibition of TACE in human mononuclear cells assessed as inhibition of LPS-induced TNF-alpha production measured after 4 hrs in presence of LPS by ELISA
pIC50: −log10 of the molar value.

Some entries whose results are on file:
What does the record list as pIC50 for "C[C@@]1(O)CCCN(S(=O)(=O)c2ccc(OCc3ccc(F)cc3F)cc2)[C@H]1C(=O)NO" ?
4.70 to 5.00

What measured pIC50 goes with "NS(=O)(=O)c1ccc(CCNC(=O)[C@H](CC2CCCCC2)NC(=O)[C@H](CCCc2ccccc2)CC(=O)NO)cc1" ?
5.52

GET /values?readout=pIC50&item= "Cc1c(F)cccc1COc1ccc(S(=O)(=O)N2C[C@H](O)CC(C)(C)[C@@H]2C(=O)NO)cc1"
> 5.00

# input compound: "Cc1ccccc1COc1ccc(S(=O)(=O)N2CCN(C(=O)CN)[C@@H](C)[C@@H]2C(=O)NO)cc1" ; wanted: its pIC50
> 5.00

Which value of pIC50 has been reported for "Cc1c(F)cccc1COc1ccc(S(=O)(=O)N2CCC[C@@](C)(O)[C@@H]2C(=O)NO)cc1" in the records?
> 5.00

Any idea what pIC50 was measured for "Cc1ccc(F)cc1COc1ccc(S(=O)(=O)N2CCC[C@@](C)(O)[C@@H]2C(=O)NO)cc1" ?
> 5.00

More entries:
Could you tell me which pIC50 is on file for "CCc1ccccc1COc1ccc(S(=O)(=O)N2CCN(C(=O)NC)[C@@H](C)[C@@H]2C(=O)NO)cc1" ?
> 5.00

I am curious: what pIC50 value has been reported for "CC1(C)C[C@@H](O)CN(S(=O)(=O)c2ccc(OCc3ccc(F)cc3Cl)cc2)[C@H]1C(=O)NO" ?
4.70 to 5.00

====

Target: Aggrecanase (Sus scrofa, UniProt F1S1A7+F1SHP0)
Assay: Inhibition of aggrecanase in primary porcine chondrocytes assessed as inhibition of 35S-proteoglycan release measured after 9 to 12 hrs by liquid scintillation counting method
Assay type: cell-based
Assay Readout: IC50

# query: IC50 of entry "C[C@@]1(O)CCCN(S(=O)(=O)c2ccc(OCc3ccc(Cl)cc3Cl)cc2)[C@H]1C(=O)NO"
< 10 nM

Quick check: IC50 of "CNC(=O)N1CCN(S(=O)(=O)c2ccc(OCc3ccc(F)cc3F)cc2)[C@@H](C(=O)NO)[C@@H]1C" ?
10 to 20 nM

Which IC50 value is on record for "CC1(C)C[C@@H](O)CN(S(=O)(=O)c2ccc(OCc3ccc(F)cc3Cl)cc2)[C@H]1C(=O)NO" ?
< 10 nM

Let us move to another entry and its IC50.
Requested read-out: IC50. Entry: "CC1(C)C[C@@H](O)CN(S(=O)(=O)c2ccc(OCc3cc(Cl)ccc3F)cc2)[C@H]1C(=O)NO"
10 to 20 nM

====

Molecular target: Disintegrin and metalloproteinase domain-containing protein 17 (Homo sapiens, UniProt P78536)
Experiment: Inhibition of TACE in human mononuclear cells assessed as inhibition of LPS-induced TNF-alpha production measured after 4 hrs in presence of LPS by ELISA
pIC50: −log10 of the molar value.
Assay Readout: pIC50

Look over these answered cases.
Give its pIC50 value. Item: "Cc1ccccc1COc1ccc(S(=O)(=O)N2CCC[C@@](C)(O)[C@@H]2C(=O)NO)cc1"
> 5.00

Please report the recorded pIC50 for "CNC(=O)N1CCN(S(=O)(=O)c2ccc(OCc3ccc(F)cc3F)cc2)[C@@H](C(=O)NO)[C@@H]1C" .
4.70 to 5.00

Give the measured pIC50 of "CC1(C)C[C@@H](O)CN(S(=O)(=O)c2ccc(OCc3ccc(F)cc3)cc2)[C@H]1C(=O)NO" .
4.70 to 5.00

***
Quick check: pIC50 of "CC1(C)C[C@@H](O)CN(S(=O)(=O)c2ccc(OCc3ccccc3Br)cc2)[C@H]1C(=O)NO" ?
> 5.00

// pIC50 lookup, key: "C[C@@]1(O)CCCN(S(=O)(=O)c2ccc(OCc3ccc(Cl)cc3Cl)cc2)[C@H]1C(=O)NO"
4.70 to 5.00

Given "Cc1cc(F)ccc1COc1ccc(S(=O)(=O)N2CCC[C@@](C)(O)[C@@H]2C(=O)NO)cc1" , state its recorded pIC50.
> 5.00

Numbers sourced from ChEMBL document CHEMBL3880381.
